- experimentalSystem: butyrylcholinesterase (BChE) (Equus caballus, UniProt P81908)
- Sequence (P81908 whole entry): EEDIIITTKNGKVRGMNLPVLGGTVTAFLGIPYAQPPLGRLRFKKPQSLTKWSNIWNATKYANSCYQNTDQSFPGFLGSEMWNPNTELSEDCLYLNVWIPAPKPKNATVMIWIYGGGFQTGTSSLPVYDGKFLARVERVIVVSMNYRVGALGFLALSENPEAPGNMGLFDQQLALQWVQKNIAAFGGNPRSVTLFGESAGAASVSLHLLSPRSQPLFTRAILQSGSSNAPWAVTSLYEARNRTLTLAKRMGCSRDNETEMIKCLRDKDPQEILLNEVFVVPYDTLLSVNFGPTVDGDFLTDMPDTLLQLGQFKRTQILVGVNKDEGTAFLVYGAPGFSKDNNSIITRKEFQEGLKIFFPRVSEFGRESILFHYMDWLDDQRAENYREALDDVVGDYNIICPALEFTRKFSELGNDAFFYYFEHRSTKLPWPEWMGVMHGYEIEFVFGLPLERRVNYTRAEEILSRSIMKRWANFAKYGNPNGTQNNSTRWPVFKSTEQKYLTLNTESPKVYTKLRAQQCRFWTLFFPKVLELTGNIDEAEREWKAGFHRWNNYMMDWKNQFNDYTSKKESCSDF
- assayText: biochemical
- conditions: Comp. Conc. 500 µg/mL; n = 3
measurementKind: inhibition of butyrylcholinesterase (% BChE activity)
Dear colleague, please send the value followed by its unit.

Lookup: Lab note: need inhibition of butyrylcholinesterase (% BChE activity) for N#Cc1cccnc1.N#Cc1cccnc1.O=C([O-])Cc1ccccc1Cl.O=C([O-])Cc1ccccc1Cl.O=C([O-])Cc1ccccc1Cl.O=C([O-])Cc1ccccc1Cl.[Cu+2].[Cu+2] on butyrylcholinesterase (BChE) (Equus caballus, UniProt P81908), anyone have it?
Found: 76.45 ± 0.49 %
